Test system: ACHN renal
ASSAY PROCEDURE: NCI tumour cell line growth inhibition, 48 h
MEASUREMENT KIND: TGI (µM)
Use µM as the unit, but write only the number.

-- ask Name the recorded TGI for CC(C)c1[nH]nc2c(NCc3ccc(-c4ccccn4)cc3)nc(SCCN(C)C)nc12 .
-- reply 4.96

-- ask Please do the same for C=C1C(=O)O[C@H]2[C@H]1CC/C(COC(=O)CCCCCCCC(=O)OC/C1=C/CC[C@@]3(C)O[C@H]3[C@H]3OC(=O)C(=C)[C@@H]3CC1)=C\CC[C@@]1(C)O[C@@H]21 as well.
-- reply 5.51

-- ask Please do the same for Cc1nn(Cc2ccccc2)cc1C(=O)Nc1sc2c(c1C(N)=O)CCC(=O)C2 as well.
-- reply 3.35

-- ask Please do the same for C=C1C(=O)O[C@@H]2CC(CO)=C([C@@H](C)CCCO)[C@@H](OC(=O)/C(C)=C\C)[C@H]12 as well.
-- reply 39.8

###

Provide the reported TGI of each item.
Tested on: NCI-H23 lung
ASSAY PROCEDURE: NCI tumour cell line growth inhibition, 48 h

-- ask Name the recorded TGI for S=c1[nH]n2c(COc3ccc(Cl)cc3)nnc2s1 .
-- reply > 100 µM

-- ask Please do the same for O=[N+]([O-])C(C(Cl)=C(Cl)Cl)=C(n1nnc2ccccc21)n1nnc2ccccc21 as well.
-- reply > 75.5 µM

-- ask Please do the same for CN(C)CCNC(=O)c1cccc2c1Oc1cccc([N+](=O)[O-])c1O2 as well.
-- reply 72.8 µM

-- ask Please do the same for CC(C)(O)CCc1cccc(C(=O)c2cnn(-c3ccc(F)cc3)c2N)c1 as well.
-- reply > 25 µM

-- ask Please do the same for COc1cc([C@@H]2OC(=O)C3C2C(=O)O[C@H]3c2ccc(O)c(OC)c2)ccc1O (some centres not stated) as well.
-- reply > 100 µM

-- ask Please do the same for CC(NP(=O)(c1ccccc1)c1ccccc1)c1ccccc1 (configuration not stated) as well.
-- reply > 100 µM

-- ask Please do the same for Cc1c(NC(=O)CSC(=S)N(C)C)c(=O)n(-c2ccccc2)n1C as well.
-- reply > 100 µM

-- ask Please do the same for COc1c(-c2ccc3c(c2)OCO3)oc2cc(O)cc(O)c2c1=O as well.
-- reply > 100 µM

-- ask Please do the same for CC1(C2COC(=O)C2)SCCCS1 (configuration not stated) as well.
-- reply > 100 µM

-- ask Please do the same for CC(=O)NC1CC(C(C)(C)NC(C)=O)CC=C1C (configuration not stated) as well.
-- reply > 100 µM

-- ask Please do the same for COC(=O)c1ccc(C(=O)OC)c2nc3cc(Cl)ccc3nc12 as well.
-- reply > 100 µM

-- ask Please do the same for CC1=CC(C)(C)Nc2ccc(Cc3ccc4c(c3)C(C)=CC(C)(C)N4)cc21 as well.
-- reply > 100 µM

-- ask Please do the same for CC(=O)N1C(CCc2ccccc2)CC(C)(C=O)C1Cc1ccc(O[Si](C(C)C)(C(C)C)C(C)C)cc1 (configuration not stated) as well.
-- reply 24.3 µM

-- ask Please do the same for Cc1ccc(N=Nc2c(O)ccc3n[nH]nc23)cc1 as well.
-- reply 38.3 µM

-- ask Please do the same for O=[N+]([O-])c1ccc(C2SCc3nc4ccccc4n32)cc1 (configuration not stated) as well.
-- reply > 100 µM

-- ask Please do the same for O=C1C(Cl)=C(Cl)C(=O)N1c1ccc(F)cc1 as well.
-- reply 36.9 µM

-- ask Please do the same for CC(=O)c1ccc2c3c1[C@H]1O[C@H]1c1cccc(c1-3)[C@@H]1O[C@H]21 as well.
-- reply 3.42 µM

###

Tested on: DU-145 prostate
ASSAY PROCEDURE: NCI tumour cell line growth inhibition, 48 h
MEASUREMENT KIND: TGI

-- ask Name the recorded TGI for O=C1N/C(=N\N=C\c2ccccc2)C2(CCCCC2)O1 .
-- reply > 100 µM

-- ask Please do the same for O=CC(O)C(O)C1OC(=O)c2cc(O)c(O)c(O)c2C2=C(O)C(O)=C3OC(=O)c4c(c(O)c(O)c5c4C3C2C(=O)O5)-c2c(cc(O)c(O)c2O)C(=O)OCC1O (configuration not stated) as well.
-- reply > 100 µM

-- ask Please do the same for Cc1ccc(Nc2nc(=O)c3c([nH]c4ccccc43)s2)cc1 as well.
-- reply 32.5 µM

-- ask Please do the same for C=C(C)C1CCC2=CC(CC3(C)OC3C3=CC(C(=O)OC)=C(C1)O3)OC2=O (configuration not stated) as well.
-- reply > 100 µM

-- ask Please do the same for CN(C(=S)Cc1ccc(Cl)c(Cl)c1)C1CCCC[C@@H]1N1CCCC1 (some centres not stated) as well.
-- reply > 100 µM

-- ask Please do the same for CCO[C@@]12CCC3CC4CC[C@@](OCC)(O1)C4C32 (some centres not stated) as well.
-- reply > 100 µM

-- ask Please do the same for O=[N+]([O-])c1cccc(-c2cn3c(n2)Cc2ccccc2C3)c1 as well.
-- reply > 100 µM

-- ask Please do the same for O=C1C=C(NCC(c2ccccc2)c2ccccc2)C(=O)c2ncccc21 as well.
-- reply 4.74 µM

-- ask Please do the same for COC1(OC)N=C(N)C2(C#N)C(C)=C3NCN(C)N=C3C12C#N (configuration not stated) as well.
-- reply > 100 µM

-- ask Please do the same for CCCCCCc1cc2cc(-c3cn4c(n3)sc3ccccc34)c(=O)oc2cc1O as well.
-- reply > 100 µM

-- ask Please do the same for O=C1C(c2c(O)[nH]c3ccc(Cl)cc23)=Nc2ccccc21 as well.
-- reply > 25.9 µM

-- ask Please do the same for COc1cccc(N2CCN(c3ncnc4cc[nH]c34)CC2)c1 as well.
-- reply > 100 µM

-- ask Please do the same for COc1c2cc([N+](=O)[O-])cc1CN(C(=O)C(F)(F)F)CCOCCN(C(=O)C(F)(F)F)C2 as well.
-- reply > 100 µM

-- ask Please do the same for Cc1ccc(-c2c3c(nn2-c2ccc(S(=O)(=O)NC(=O)NC4CCCCC4)cc2)-c2ccccc2C3)cc1 as well.
-- reply 28.7 µM

-- ask Please do the same for O=C1C(Cl)=C(Cl)C(=O)N1c1ccc(F)cc1 as well.
-- reply > 100 µM

-- ask Please do the same for CNCC(=O)NC(CO)C(=O)NC(CO)C(=O)NC1C(C(N)=O)OC(n2ccc(N)nc2=O)C(O)C1O (configuration not stated) as well.
-- reply > 50 µg/mL

-- ask Please do the same for CC(=O)N1C(CCc2ccccc2)CC(C)(C=O)C1Cc1ccc(O[Si](C(C)C)(C(C)C)C(C)C)cc1 (configuration not stated) as well.
-- reply 18.9 µM

-- ask Please do the same for C[C@@H](NC(=O)Cn1c(Cl)nc2ccccc21)c1ccccc1 as well.
-- reply > 100 µM

-- ask Please do the same for [Cl][Hg][c]1ccc2ccccc2c1 as well.
-- reply 15.3 µM

-- ask Please do the same for COC(=O)c1c2c(c(C)[n+]([O-])c1C)C(=O)C(NCc1ccc(F)cc1)=CC2=O as well.
-- reply 4.76 µM

-- ask Please do the same for Cc1cccc(Nc2nc3ccccc3nc2NS(=O)(=O)c2ccccc2)c1 as well.
-- reply > 100 µM

-- ask Please do the same for Cc1cc(-c2nc3n(c2/C=N/N=C(N)N)CCS3)c(C)s1 as well.
-- reply 34.7 µM

-- ask Please do the same for C=CCC(N[C@H](CO)c1ccccc1)c1ccccn1 (some centres not stated) as well.
-- reply > 100 µM

-- ask Please do the same for CC(=O)CCc1ccc(Oc2c3c(nc4ccccc24)OCC3)cc1 as well.
-- reply > 100 µM

-- ask Please do the same for Cc1ccc2c(=O)c(-c3nnc(NC4CCCCC4)s3)c[nH]c2n1 as well.
-- reply > 100 µM

-- ask Please do the same for O=C(N=Nc1c(Cl)c(O)c2ccccc2c1O)C(=O)Nc1cccc(C(F)(F)F)c1 as well.
-- reply 5.15 µM

-- ask Please do the same for COC(=O)CSc1nc2[nH]c(SC)c(C(N)=O)c2c(=O)n1-c1ccccc1 as well.
-- reply > 10 µM

-- ask Please do the same for CC1=NN(c2cccc(Cl)c2)C(=O)/C1=C\C=C\c1ccccc1 as well.
-- reply 12.1 µM

-- ask Please do the same for CC[C@@H]([C@H](O)c1ccccc1Cl)[N+](=O)[O-] as well.
-- reply > 100 µM

-- ask Please do the same for COc1cc2c(NC3CCN(C(C)C)CC3)nc(C3CCCCC3)nc2cc1OCCCN1CCCC1 as well.
-- reply 17.1 µM

-- ask Please do the same for COc1ccc2c(CCCc3ccc(Cl)cc3Cl)c3[n+](cc2c1OC)CCc1cc2c(cc1-3)OCO2 as well.
-- reply 1.96 µM

-- ask Please do the same for COc1ccc(CCc2ccc3c(c2)OCO3)cc1 as well.
-- reply > 100 µM

-- ask Please do the same for COc1ccc2nc3n(c2c1)C(c1c(F)cccc1F)SC3 (configuration not stated) as well.
-- reply > 100 µM

-- ask Please do the same for S=c1[nH]n2c(COc3ccc(Cl)cc3)nnc2s1 as well.
-- reply > 100 µM

-- ask Please do the same for CC(C)(C)C(=O)c1c(C(F)(F)F)n([O-])c2cc(Cl)c(Cl)cc2[n+]1=O as well.
-- reply 0.803 µM

-- ask Please do the same for C=CCSC1=N/C(=C\c2ccc(OC)cc2)C(=O)N1CC=C as well.
-- reply > 100 µM

-- ask Please do the same for CC(C)[C@@H]1CC[C@@H](C)C[C@H]1OC(=O)/C=C1\C(C(=O)O[C@@H]2C[C@H](C)CC[C@H]2C(C)C)[C@H]2C=C[C@@H]1O2 (some centres not stated) as well.
-- reply > 100 µM

-- ask Please do the same for O=C(NCCCl)Nc1ccccc1 as well.
-- reply > 100 µM

-- ask Please do the same for CN(C)c1cc2c(Nc3ccc4c(cnn4Cc4ccccc4)c3)ncnc2cn1 as well.
-- reply > 25 µM

-- ask Please do the same for C[C@@]1(C(=O)O)CCC[C@]2(C)C1CC[C@]13C[C@@](O)(CO)[C@](O)(CC[C@]12O)C3 (some centres not stated) as well.
-- reply > 100 µM

-- ask Please do the same for CN(C)CCNC(=O)c1cccc2c1Oc1cccc([N+](=O)[O-])c1O2 as well.
-- reply 31.5 µM

-- ask Please do the same for CC1=CC(C)(C)Nc2ccc(Cc3ccc4c(c3)C(C)=CC(C)(C)N4)cc21 as well.
-- reply 76.1 µM
